From: patent US20260055083A1

biological target: APOL1 G2 (Homo sapiens, UniProt O14791, DEL388-389); test: APOL1 G2 HEK293 rescue of cell death caused by overexpression of APOL1 (CellTiter-Glo); details: HEK293/T-REx APOL1 G2 clone #2, doxycycline induction, 17 hours, CellTiter-Glo luminescence; reversal of cell death; geometric mean of at least 2 assay runs
Sequence (O14791 with tags, fused parts or gaps DEL388-389): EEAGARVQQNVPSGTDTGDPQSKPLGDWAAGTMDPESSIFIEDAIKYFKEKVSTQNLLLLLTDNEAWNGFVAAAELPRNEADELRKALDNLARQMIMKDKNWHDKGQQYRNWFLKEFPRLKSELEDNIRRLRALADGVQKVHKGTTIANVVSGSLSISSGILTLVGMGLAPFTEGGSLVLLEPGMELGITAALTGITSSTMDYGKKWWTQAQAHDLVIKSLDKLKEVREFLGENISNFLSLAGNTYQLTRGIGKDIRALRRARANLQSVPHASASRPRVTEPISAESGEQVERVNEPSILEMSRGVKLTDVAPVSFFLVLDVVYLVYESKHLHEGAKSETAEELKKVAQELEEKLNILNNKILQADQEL
pEC50: −log10 of the molar value.
Decide by pEC50: equal to or exceeding 7 means t, less means f.

Below, 4 compounds whose answers are already recorded.
# compound, label-value
records = [
    ("C[C@@H]1C[C@H](COc2ccc(S(=O)(=O)CCS(C)(=O)=O)cc2)CN1C1CCc2ccc(C#N)cc2C1 (single isomer, unassigned) [Compound 31]", "f"),
    ("Cc1cc(OC[C@H]2C[C@@H](C)N(CC(O)c3cccc(C#N)c3)C2)cnc1S(C)(=O)=O (single isomer, unassigned) [Compound 96]", "t"),
    ("CS(=O)(=O)c1ccc(OCC2C[C@@H](CO)N(CCc3cccc(Cl)c3)C2)cc1 (single isomer, unassigned) [Compound 123]", "f"),
    ("CS(=O)(=O)c1ccc(OC[C@@H]2CCCN(C3CCc4ccc(Cl)cc4C3)C2)cc1 (single isomer, unassigned) [Compound 132]", "f"),
]

Enquiry: Answer whether pEC50 of C[C@@H]1C[C@H](COc2ccc(S(=O)(=O)CCO)cc2)CN1C1CCc2ccc(C#N)cc2C1 (stereo partly drawn) [Compound 58] is greater than or equal to 7.
Return: t

###

target: APOL1 G2 (Homo sapiens, UniProt O14791, DEL388-389); experiment: APOL1 G2 HEK293 rescue of cell death caused by overexpression of APOL1 (CellTiter-Glo); details: HEK293/T-REx APOL1 G2 clone #2, doxycycline induction, 17 hours, CellTiter-Glo luminescence; reversal of cell death; geometric mean of at least 2 assay runs
readout: pEC50
Scale explanation: pEC50 corresponds to minus log10 of a concentration expressed in moles per litre.

The cases that follow already have their pEC50 on record.
# compound, pEC50
records = [
    ("C[C@@H]1C[C@H](COc2ccc(S(C)(=O)=O)cc2)CN1C1CCc2c(Cl)cccc2C1 (single isomer, unassigned) [Compound 138]", 6.83),
    ("C[C@H]1C[C@H](COc2ccc(S(C)(=O)=O)cc2)CN1CCc1cccc(Cl)c1 [Compound 143]", 5.92),
    ("C[C@@H]1C[C@H](COc2ccc(S(C)(=O)=O)nn2)CN1CCc1cccc(C#N)c1 [Compound 26]", 6.56),
    ("CS(=O)(=O)c1ccc(OC[C@@H]2CN(CCc3cccc(C#N)c3)CCN2)cc1C(F)(F)F [Compound 113]", 6.14),
    ("C[C@@H]1C[C@H](COc2ccc(S(=O)(=O)CCS(C)(=O)=O)cc2)CN1C1CCc2ccc(Cl)cc2C1 (stereo partly shown) [Compound 49]", 6.71),
]

Now, please, on to the next compound.
Enquiry: Quick one: pEC50 of C[C@@H]1C[C@H](COc2ccc(S(=O)(=O)CCO)cc2)CN1C1CCc2c(C#N)cc(Cl)cc2C1 (stereo partly shown) [Compound 55] ?
Return: 6.62

###

Listing: AC50 of selected compounds
molecular target: APOL1 G2 (Homo sapiens, UniProt O14791, DEL388-389); construct: expressed in transfected cells; host or cells: HEK293/T-REx APOL1 G2 clone #2, doxycycline-inducible; experiment: APOL1 G2 FLIPR calcium influx assay (HEK T-REx/GCaMP6f/APOL1 G2 K6.3 cells); assay type: cell-based; settings: HEK293 clone expressing GCaMP6f, doxycycline-induced APOL1 G2; prevention of calcium influx; geometric mean of at least 2 assay runs

# compound, assay-system, AC50
rows = [
    ("CN=S(C)(=O)c1ccc(OC[C@@H]2CN(CCc3cccc(C#N)c3)C[C@H]2C)cn1 (single isomer, unassigned) [Compound 73]", "APOL1 G2 (Homo sapiens, UniProt O14791, DEL388-389)", "351 nM"),
    ("C[C@@H]1C[C@H](COc2ccc(S(=O)(=O)CCO)cc2)CN1C1CCc2ccc(C#N)cc2C1 (stereo partly shown) [Compound 58]", "APOL1 G2 (Homo sapiens, UniProt O14791, DEL388-389)", "581 nM"),
    ("CC(c1ccc(OC[C@@H]2CN(CCc3cccc(Cl)c3)CCN2)cc1)S(C)(=O)=O (single isomer, unassigned) [Compound 141]", "APOL1 G2 (Homo sapiens, UniProt O14791, DEL388-389)", "160 nM"),
]

Now, please, on to the next compound.
Enquiry: Quick one: AC50 of C[C@@H]1C[C@H](COc2ccc(S(C)(=O)=O)cc2)CN1C1CCc2ccc(Cl)cc2C1 (single isomer, unassigned) [Compound 6] ?
Return: 839 nM

###

biological target: APOL1 G2 (Homo sapiens, UniProt O14791, DEL388-389); construct: expressed in transfected cells; host or cells: HEK293/T-REx APOL1 G2 clone #2, doxycycline-inducible; experiment: APOL1 G2 FLIPR calcium influx assay (HEK T-REx/GCaMP6f/APOL1 G2 K6.3 cells); type: cell-based; details: HEK293 clone expressing GCaMP6f, doxycycline-induced APOL1 G2; prevention of calcium influx; geometric mean of at least 2 assay runs
readout: AC50 (µM)
# value in µM; strip the unit string

# compound, AC50 (µM)
records = [
    ("C[C@@H]1C[C@H](COc2ccc(S(C)(=O)=O)cn2)CN1CCc1cc(Cl)cc(C#N)c1", 0.279),
    ("CS(=O)(=O)c1ccc(OC[C@@H]2CCCN(C3CCc4ccc(Cl)cc4C3)C2)cc1 (single isomer, unassigned) [Compound 132]", 0.446),
]

Enquiry: For the record CC(C(O)c1cc(Cl)cc(C#N)c1)N1C[C@@H](COc2ccc(S(C)(=O)=O)cc2)[C@H](C)C1 (single isomer, unassigned) [Compound 102] , what value of AC50 is listed for APOL1 G2 (Homo sapiens, UniProt O14791, DEL388-389)?
Return: 0.744

Enquiry: For the record C[C@@H]1CN(CCc2cccc(C#N)c2)C[C@H]1COc1ccc(S(C)(=O)=NCCS(C)(=O)=O)cc1 (single isomer, unassigned) [Compound 70] , what value of AC50 is listed for APOL1 G2 (Homo sapiens, UniProt O14791, DEL388-389)?
Return: 0.236

Enquiry: For the record C[C@@H]1C[C@H](COc2ccc(S(=O)(=O)CCS(C)(=O)=O)cc2)CN1C1CCc2ccc(Cl)cc2C1 (single isomer, unassigned) [Compound 50] , what value of AC50 is listed for APOL1 G2 (Homo sapiens, UniProt O14791, DEL388-389)?
Return: 1.07

Enquiry: For the record C[C@@H]1C[C@H](COc2ccc(S(=O)(=O)CCO)cc2)CN1C1CCc2ccc(Cl)cc2C1 (single isomer, unassigned) [Compound 62] , what value of AC50 is listed for APOL1 G2 (Homo sapiens, UniProt O14791, DEL388-389)?
Return: 0.462

###

biological target: APOL1 G2 (Homo sapiens, UniProt O14791, DEL388-389); assay: APOL1 G2 HEK293 rescue of cell death caused by overexpression of APOL1 (CellTiter-Glo); conditions: HEK293/T-REx APOL1 G2 clone #2, doxycycline induction, 17 hours, CellTiter-Glo luminescence; reversal of cell death; geometric mean of at least 2 assay runs
Label satisfied when EC50 is strictly below 400 nM; at or above that, label not satisfied.

Below, 5 compounds whose answers are already recorded.
# compound, label-value
records = [
    ("CC(C(O)c1cc(Cl)cc(C#N)c1)N1C[C@@H](COc2ccc(S(C)(=O)=O)cc2)[C@H](C)C1 (single isomer, unassigned) [Compound 101]", "not satisfied"),
    ("C[C@@H]1C[C@H](COc2ccc(S(C)(=O)=O)cc2)CN1C1CCc2c(C#N)cc(Cl)cc2C1 (single isomer, unassigned) [Compound 9]", "not satisfied"),
    ("C[C@@H]1C[C@H](COc2ccc(S(=O)(=O)CCS(C)(=O)=O)cc2)CN1C1CCc2ccc(Cl)cc2C1 (single isomer, unassigned) [Compound 51]", "satisfied"),
    ("C[C@@H]1C[C@H](COc2ccc(S(=O)(=O)CCO)cc2)CN1C1CCc2ccc(C#N)cc2C1 (single isomer, unassigned) [Compound 59]", "satisfied"),
    ("C[C@@H]1CN(CCc2cccc(C#N)c2)C[C@H]1COc1ccc(S(C)(=O)=NCCS(C)(=O)=O)cc1 (single isomer, unassigned) [Compound 70]", "satisfied"),
]

Consider now this further compound.
Enquiry: EC50 under 400 nM? Item: C[C@@H]1C[C@H](COc2ccc(S(C)(=O)=O)cc2)CN1CC(CO)c1cc(Cl)cc(C#N)c1 (single isomer, unassigned) [Compound 129]
Return: not satisfied
